Values from patent US20240279232A1

I'd be grateful if you could share measured log10 Ki for these entries.
Target: BZR (benzodiazepine site of GABAAR)
Assay: GABAAR/BZR binding, rat brain homogenate with 3H-flunitrazepam
Settings: rat brain homogenate, 3H-flunitrazepam
Procedure: Ligand affinities were determined for KOR (κ opioid receptor), DOR (δ opioid receptor), and MOR (μ opioid receptor) using radioligand binding assays at a screening concentration of 10,000 nM. […] Gamma aminobutyric acid type A receptor (GABAAR) binding was determined with rat brain homogenate and ^3H-flunitrazepam. […] Psychoactive Drug Screening Program. […] Total binding and nonspecific binding are determined in the absence and presence of 10 μM of appropriate reference compound, respectively. […]
Kindly note that the scale is log10 and the underlying Ki is in nM.

Worked cases, answers included:
compound	recorded_result
C#Cc1ccc2c(c1)C(c1ccccc1F)=N[C@@H](C)c1c(C(=O)N(C)C)ncn1-2 [GL-I-54]	1.95
C#Cc1ccc2c(c1)C(c1ccccc1F)=N[C@@H](C)c1c(-c3nc(C)no3)ncn1-2 [GL-I-65]	3.06
C#Cc1ccc2c(c1)C(c1ccccc1F)=N[C@@H](C)c1c(C(=O)OC3CC3)ncn1-2 [GL-I-38]	2.10
C#Cc1ccc2c(c1)C(c1ccccc1F)=N[C@H](C)c1c(C(=O)NC3CC3)ncn1-2 [GL-II-75]	1.97
C#Cc1ccc2c(c1)C(c1ccccn1)=NCc1c(C(=O)O)ncn1-2 [SR-II-54]	1.84

Record log10 Ki for all entries; do not skip any.
1. C#Cc1ccc2c(c1)C(c1ccccc1F)=N[C@@H](C)c1c(C(=O)OCC)ncn1-2 [SH-053-2′F-S-CH3]
2. C#Cc1ccc2c(c1)C(c1ccccc1F)=N[C@@H](C)c1c(C(=O)OCCC)ncn1-2 [GL-I-32]
3. CCOC(=O)c1ncn2c1[C@@H](C)N=C(c1ccccn1)c1cc(Br)ccc1-2 [GL-II-06]
4. C#Cc1ccc2c(c1)C(c1ccccc1F)=N[C@H](C)c1c(C(N)=O)ncn1-2 [MP-III-019.B]
5. CCNC(=O)c1ncn2c1[C@@H](C)N=C(c1ccccc1F)c1cc(C3CC3)ccc1-2 [GL-III-68]
6. Fc1ccccc1C1=NCc2c(-c3cnco3)ncn2-c2ccc(Br)cc21 [SH-I-85]
7. COC(=O)c1ncn2c1[C@@H](C)N=C(c1ccccc1F)c1cc(Br)ccc1-2 [MP-III-058]

[2.05, 2.17, 2.75, 1.73, 2.66, 1.04, 2.46]
